TGT: Klenow fragment of E. coli DNA polymerase I (Escherichia coli)
MEASURED_QUANTITY: IC50

COc1cc(O)c2c(c1)oc(=O)c1c3cc(O)c(O)cc3oc21 [Wedelolactone, 7-methoxy-5,11,12-trihydroxy-coumestan]	> 700 µM

---

TGT: HCV NS5BCΔ21 (Hepatitis C virus genotype 1b)
pKi: −log10 of the molar value.
MEASURED_QUANTITY: pKi

COc1cc(O)c2c(c1)oc(=O)c1c3cc(O)c(O)cc3oc21 [Wedelolactone, 7-methoxy-5,11,12-trihydroxy-coumestan]	4.95

---

TGT: HCV NS5BCΔ21 (Hepatitis C virus genotype 1b, UniProt P26663)
ASSAY_DETAILS: NS5B RdRp assay
Format: biochemical
CONDITION_CONTEXT: NS5B inhibition (IC50 μM), poly rA/U12, 25 μM UTP, 0.5 mM MnCl2, 10% DMSO, 1 h at 30°C
MEASURED_QUANTITY: IC50

COc1cc(O)c2c(c1)oc(=O)c1c3cc(O)c(O)cc3oc21 [Wedelolactone, 7-methoxy-5,11,12-trihydroxy-coumestan]	36.1 µM
